Sourced from PubChem BioAssay AID1220

biological target: Mannose-6-phosphate isomerase (Homo sapiens); experiment: MPI inhibition at elevated mannose 6-phosphate – biochemical, fluorescence intensity, high mannose 6-phosphate, primary screen (AID 1220); settings: recombinant PMI enzyme, coupled fluorescence intensity; at 20 µM; hits give high values
Hit rate of the full screen: of about 190,000 compounds, about 1,300 (0.68%) were called active. Many of the other results were omitted from the sample, so actives are more common in it than they were.
property.label: inhibition (%)
Give the quantity in %, number only.

**Query** Given the entry `O=C(CNc1cccc2ccccc12)N/N=C/c1ccc([N+](=O)[O-])o1` , report its measured inhibition.
**Result** 60.4

**Query** Given the entry O=C1NC(c2ccc(-c3ccccc3[N+](=O)[O-])o2)C(C(=O)c2ccccc2)C(O)(C(F)(F)F)N1 (stereo not given) , report its measured inhibition.
**Result** 50.5

**Query** Given the entry O=C(NC(Cc1c[nH]c2ccccc12)C(=O)NCCCN1CCOCC1)c1cccs1 (stereo not given) , report its measured inhibition.
**Result** 11.4

**Query** Given the entry `CCOc1ccc(OCC)c(S(=O)(=O)NNC(=O)c2c(C)nc3ccccn23)c1` , report its measured inhibition.
**Result** -3.5

**Query** Given the entry `Cc1ccc(Nc2nc(Nc3ccc(C)cc3)nc(SC3=NCCS3)n2)cc1` , report its measured inhibition.
**Result** 8.1

**Query** Given the entry Cc1cccc(COCC(CC(C)C)N2CCN(C(=O)c3ccc(C(F)(F)F)cc3)CCC2=O)c1 (stereo not given) , report its measured inhibition.
**Result** -9

**Query** Given the entry `O=C1c2ccccc2C(=O)c2c1oc(C(F)(F)F)c2C(=O)c1ccccc1` , report its measured inhibition.
**Result** -32.9

**Query** Given the entry `CCOC(=O)c1c(C)[nH]c2ccc(O)cc12` , report its measured inhibition.
**Result** 6

**Query** Given the entry `CCCc1c(O)nc(SCC(=O)NCCc2ccc(OC)c(OC)c2)[nH]c1=O` , report its measured inhibition.
**Result** 6.4

**Query** Given the entry `CCN1CCc2c(C#N)c(N3CCOCC3)nc(N3CCOCC3)c2C1` , report its measured inhibition.
**Result** -3

**Query** Given the entry `Cc1nc2c([N+](=O)[O-])c(C)c(C)cc2[nH]1` , report its measured inhibition.
**Result** 4.2

**Query** Given the entry `O=C(CCn1c(=O)sc2ccccc21)NCc1cccs1` , report its measured inhibition.
**Result** -0.4

**Query** Given the entry `CCN1CCc2c(C#N)c(N3CCOCC3)nc(NCCO)c2C1` , report its measured inhibition.
**Result** 57.2

**Query** Given the entry `CCOC(=O)Cc1c(C)c2c(O)cc(O)cc2oc1=O` , report its measured inhibition.
**Result** 33.5

**Query** Given the entry Cc1nn(-c2ccc(Cl)cc2)c(N)c1C(O)(CSc1nccn1C)C(F)(F)F (stereo not given) , report its measured inhibition.
**Result** 10.3

**Query** Given the entry `Cc1nc2ccc3[nH]snc3c2n1` , report its measured inhibition.
**Result** 2.6

**Query** Given the entry `Cc1coc2c1c(C)cc1oc(=O)c(Cc3ccccc3)c(C)c12` , report its measured inhibition.
**Result** -11.6

**Query** Given the entry `Brc1ccc(/C=N/c2nc3ccccc3n2CCN2CCOCC2)cc1` , report its measured inhibition.
**Result** 9.4

**Query** Given the entry Cc1ccc(C(C(=O)NCc2ccco2)N(C(=O)Cc2cccs2)c2cccnc2)cc1 (stereo not given) , report its measured inhibition.
**Result** -5

**Query** Given the entry `Cc1cc2nc3c(=O)[nH]c(=O)[nH]c3nc2c([N+](=O)[O-])c1N` , report its measured inhibition.
**Result** 53.3

**Query** Given the entry `Cc1c(Cc2ccccc2)c(=O)oc2cc(O)cc(O)c12` , report its measured inhibition.
**Result** 58.5

**Query** Given the entry `COc1cc2c(C#N)c(N3CCOCC3)nc(N)c2c(N)n1` , report its measured inhibition.
**Result** 22

**Query** Given the entry `COc1cc2c(C#N)c(N3CCN(c4ccccc4OC)CC3)nc(N)c2c(N)n1` , report its measured inhibition.
**Result** 54

**Query** Given the entry `COc1ccc2c(C)c(Cc3ccccc3)c(=O)oc2c1OC` , report its measured inhibition.
**Result** 0.1

**Query** Given the entry `COc1ccc(-c2cc(CNC(=O)CN3CCN(C)CC3)on2)cc1` , report its measured inhibition.
**Result** 20.4

**Query** Given the entry `O=c1[nH]c(=O)c2nc3c4ccccc4c4ccccc4c3nc2[nH]1` , report its measured inhibition.
**Result** 11.6

**Query** Given the entry `CCN(CC)c1ccc(/C=C2/SC(=O)N(C(C)C)C2=O)o1` , report its measured inhibition.
**Result** 51.9

**Query** Given the entry Cn1c(Cn2c(=O)sc3ccccc32)nnc1SCC(=O)NCC1CCCO1 (stereo not given) , report its measured inhibition.
**Result** 2.5

**Query** Given the entry `O=C(O)c1cccc(NS(=O)(=O)c2ccc(-c3ccc(S(=O)(=O)Nc4cccc(C(=O)O)c4)cc3)cc2)c1` , report its measured inhibition.
**Result** 53.1

**Query** Given the entry `O=C(COC(=O)/C=C/c1ccccc1[N+](=O)[O-])NCC(F)(F)F` , report its measured inhibition.
**Result** -8.8

**Query** Given the entry `CNc1ccc(/C=C(\C#N)c2ccccn2)cc1[N+](=O)[O-]` , report its measured inhibition.
**Result** -3.1

**Query** Given the entry `Cc1ccccc1Cn1nnc(-c2ccc3c(c2)OCO3)n1` , report its measured inhibition.
**Result** 12.9

**Query** Given the entry `Cc1cccc(NC(=S)NCCc2ccccc2)n1` , report its measured inhibition.
**Result** 6.5

**Query** Given the entry Cc1ccc(C2NC(=O)NC(O)(C(F)(F)F)C2C(=O)c2ccccc2)o1 (stereo not given) , report its measured inhibition.
**Result** -19.5

**Query** Given the entry CC1CCN(c2c(NCC3CCC(C(=O)NCCc4ccccc4)CC3)c(=O)c2=O)CC1 (stereo not given) , report its measured inhibition.
**Result** 1.2

**Query** Given the entry `O=C(CNc1ccc2ccccc2c1)N/N=C/c1ccc([N+](=O)[O-])o1` , report its measured inhibition.
**Result** 46.2

**Query** Given the entry `c1cc2[nH]snc2c2nc(C3CC3)nc12` , report its measured inhibition.
**Result** 54.2

**Query** Given the entry COc1ccc(C(c2sc3nc(C)nn3c2O)N2CCCCC2)cc1 (stereo not given) , report its measured inhibition.
**Result** 4.3

**Query** Given the entry `CC(C)N1C(=O)S/C(=C/c2ccc(Sc3nc4ccccc4[nH]3)o2)C1=O` , report its measured inhibition.
**Result** 13.6

**Query** Given the entry `O=C(c1ccccc1)c1coc2c1C(=O)c1ccccc1C2=O` , report its measured inhibition.
**Result** 30.7

**Query** Given the entry `CN1CCN(C(=O)c2cc(-c3ccco3)on2)CC1` , report its measured inhibition.
**Result** -11

**Query** Given the entry `O=C(O)c1cccc(NS(=O)(=O)c2ccc(C3CCCCC3)cc2)c1` , report its measured inhibition.
**Result** -7

**Query** Given the entry `O=C(c1cc(-c2ccco2)on1)N1CCOCC1` , report its measured inhibition.
**Result** 26.3

**Query** Given the entry `CCOC(=O)c1c(C)[nH]c2c1cc(O)c1ccccc12` , report its measured inhibition.
**Result** 61.2

**Query** Given the entry `CSc1nc(Cl)cc(Nc2ccccc2N)n1` , report its measured inhibition.
**Result** -3

---

target: Mannose-6-phosphate isomerase (Homo sapiens) (UniProt P34949); experiment: MPI inhibition at elevated mannose 6-phosphate – biochemical, fluorescence intensity, high mannose 6-phosphate, primary screen (AID 1220); conditions: recombinant PMI enzyme, coupled fluorescence intensity; at 20 µM
Sequence (P34949 whole entry, looked up): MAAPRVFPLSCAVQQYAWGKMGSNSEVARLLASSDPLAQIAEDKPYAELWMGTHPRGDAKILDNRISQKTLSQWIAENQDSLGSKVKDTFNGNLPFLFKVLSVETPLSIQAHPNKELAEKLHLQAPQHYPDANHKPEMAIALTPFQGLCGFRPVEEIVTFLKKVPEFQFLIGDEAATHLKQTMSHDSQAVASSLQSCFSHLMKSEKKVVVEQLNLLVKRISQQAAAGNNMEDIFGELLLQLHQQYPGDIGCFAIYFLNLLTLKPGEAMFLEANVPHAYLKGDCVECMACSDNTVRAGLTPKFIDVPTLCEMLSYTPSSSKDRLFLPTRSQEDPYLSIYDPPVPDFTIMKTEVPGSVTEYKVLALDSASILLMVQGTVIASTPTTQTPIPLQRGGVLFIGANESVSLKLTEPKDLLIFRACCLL
Hit rate of the full screen: of about 190,000 compounds, about 1,300 (0.68%) were called active. No stated cut-off is given here; in the data, active means inhibition above about 50%; inactive means the rest. The sample as a whole holds a higher share of actives than the screen did.
Outcomes you can answer with include only these: active, inactive

**Query** Would you mind telling me which call this test gave `Oc1ccc2ccccc2c1CNn1cnnc1` ?
**Result** inactive

**Query** Would you mind telling me which call this test gave `Cn1c(Cc2ccccc2)nnc1SCC(=O)N1CCOCC1` ?
**Result** inactive

**Query** Would you mind telling me which call this test gave `Cc1ccn2cc(C(=O)Nc3nnc(C)s3)nc2c1` ?
**Result** active

**Query** Would you mind telling me which call this test gave `Nc1cc2c(cc1C(=O)c1ccccc1F)OCCO2` ?
**Result** inactive

**Query** Would you mind telling me which call this test gave COc1ccc(N2CC(NC(=O)NCC(C)C)CC2=O)cc1 (centres undefined) ?
**Result** inactive

**Query** Would you mind telling me which call this test gave O=C(Nc1cccnc1)C1CCCN(S(=O)(=O)c2ccccc2)C1 (centres undefined) ?
**Result** inactive

**Query** Would you mind telling me which call this test gave `CC1(C)CC(NCCN2CCN(C3=CC(=C(C#N)C#N)CC(C)(C)C3)CC2)=CC(=C(C#N)C#N)C1` ?
**Result** inactive

**Query** Would you mind telling me which call this test gave CCc1c(C(C)S(=O)(=O)c2ccc(C)cc2)[nH]c(=O)n1-c1ccc(OC(F)(F)F)cc1 (centres undefined) ?
**Result** inactive

**Query** Would you mind telling me which call this test gave `O=C(c1ccccc1)c1cc2c(cc1[N+](=O)[O-])OCCO2` ?
**Result** inactive

**Query** Would you mind telling me which call this test gave `Cn1c(=O)cc(-c2ccccc2)c2ccccc21` ?
**Result** inactive

**Query** Would you mind telling me which call this test gave `Cc1noc(C)c1S(=O)(=O)Nc1ccc(C(=O)NCCc2ccccc2)cc1` ?
**Result** inactive

**Query** Would you mind telling me which call this test gave `CC(/C=N/Nc1nc(C)cc(=O)[nH]1)=C\c1ccccc1` ?
**Result** inactive

**Query** Would you mind telling me which call this test gave `COCc1c(C(=O)N/N=C/c2cccc3ccccc23)nnn1-c1nonc1N` ?
**Result** inactive

**Query** Would you mind telling me which call this test gave `COC(=O)COc1ccc(S(=O)(=O)N2CCN(c3ccccc3)CC2)cc1` ?
**Result** inactive

**Query** Would you mind telling me which call this test gave `CC(=O)c1cc2c(C)c(C(=O)c3ccccc3)oc2cc1O` ?
**Result** inactive

**Query** Would you mind telling me which call this test gave `Cc1cc(NC(=O)C2CC2)ncc1NC(=O)C12CC3CC(CC(C3)C1)C2` ?
**Result** inactive

**Query** Would you mind telling me which call this test gave CCc1c(C(C)S(=O)(=O)c2ccc(C)cc2)[nH]c(=O)n1-c1ccc(C)cc1 (centres undefined) ?
**Result** inactive

**Query** Would you mind telling me which call this test gave `CC(=O)c1cc2c(O)c(O)ccc2o1` ?
**Result** active

**Query** Would you mind telling me which call this test gave `Cc1cc(N)n(-c2ccc(C(=O)O)cc2)n1` ?
**Result** inactive

**Query** Would you mind telling me which call this test gave `CCOc1ccc(NC2CCN(C(C)=O)CC2)cc1` ?
**Result** inactive

**Query** Would you mind telling me which call this test gave `O=c1[nH]cnc2ccsc12` ?
**Result** inactive

**Query** Would you mind telling me which call this test gave CCN1CCN(C2=CC3=CC(=C(C#N)C#N)CCC3CC2)CC1 (centres undefined) ?
**Result** active

**Query** Would you mind telling me which call this test gave `O=C(NC1=NCCS1)c1ccccc1OCc1ccc(F)cc1` ?
**Result** inactive

**Query** Would you mind telling me which call this test gave `O=C(Nc1cc(N2CCOCC2)ncn1)NC1(C(F)(F)F)Oc2ccccc2O1` ?
**Result** inactive
